Experiment: Partition coefficient, log P of the compound
Format: physicochemical
Details: octanol/water
Label Criterion met for high-side logP (at or above 5) and Criterion not met for low-side logP (below it).

Compound	Label
C[C@H]1[C@H](NS(N)(=O)=O)O[C@@H]2O[C@@]3(C)CC[C@H]4[C@H](C)CC[C@@H]1[C@@]24OO3	Criterion not met
C[C@H]1[C@H](N2CCN(Cc3ccccc3)CC2)O[C@@H]2O[C@@]3(C)CC[C@H]4[C@H](C)CC[C@@H]1[C@@]24OO3	Criterion met
C[C@@H]1CC[C@H]2[C@@H](C)C(c3ccc(F)cc3)O[C@@H]3O[C@@]4(C)CC[C@@H]1[C@]32OO4 (some centres not stated)	Criterion met
C[C@H]1[C@H](N2CCN(c3ncccn3)CC2)O[C@@H]2O[C@@]3(C)CC[C@H]4[C@H](C)CC[C@@H]1[C@@]24OO3	Criterion not met
C[C@@H]1CC[C@H]2[C@@H](C)C(=O)O[C@@H]3O[C@@]4(C)CC[C@@H]1[C@]32OO4	Criterion not met

Is it the case that C[C@H]1[C@H](N2CCS(=O)(=O)CC2)O[C@@H]2O[C@@]3(C)CC[C@H]4[C@H](C)CC[C@@H]1[C@@]24OO3 has logP reaching or exceeding 5?
Criterion not met

Value source: ChEMBL document CHEMBL1649225
